inhibition of cellular viability values by entry
tested on: human normal MRC-5 cells; experiment: MTT cell viability assay; type: cell-based; details: MRC-5, 0.01 μM, 48 h
Don't forget the unit after the number, please.

{"columns": ["Compound", "inhibition of cellular viability"],
 "data": [
  ["O=C1CSC(c2ccc(F)cc2)N1c1nc2ccc(Cl)cc2s1 (centres unmarked)", "31.0%"],
  ["Cc1cc(C23CC4CC(CC(C4)C2)C3)cc2sc(N3C(=O)CSC3c3c(F)cccc3F)nc12 (centres unmarked)", "20.8%"],
  ["O=C1CSC(c2c(F)cccc2Cl)N1c1nc2cccc(Cl)c2s1 (centres unmarked)", "68.5%"]
]}

Q: # query: inhibition of cellular viability of entry O=C1CSC(c2ccc(Br)cc2)N1c1nc2ccc(C34CC5CC(CC(C5)C3)C4)cc2s1 (centres unmarked)
A: 65.0%

Q: Param item = N#Cc1ccc2nc(N3C(=O)CSC3c3c(F)cccc3Cl)sc2c1 (centres unmarked) ; retrieve measured inhibition of cellular viability.
A: 57%

* * *

The following molecules have recorded pIC50 on SARS-CoV-2 3CL protease (Severe acute respiratory syndrome coronavirus 2).
pIC50: −log10 of the molar value.

Reference set, count: 10
{"columns": ["Molecule", "pIC50"],
 "data": [
  ["Cc1cc(C23CC4CC(CC(C4)C2)C3)cc2sc(N3C(=O)CSC3c3c(F)cccc3F)nc12 (stereo not drawn) [n2]", 5.00],
  ["N#Cc1ccc2nc(N3C(=O)CSC3c3c(F)cccc3Cl)sc2c1 (stereo not drawn) [k3]", 8.00],
  ["O=C1CSC(c2ccc(F)cc2)N1c1nc2ccc(OC(F)(F)F)cc2s1 (stereo not drawn) [h6]", "< 4.30"],
  ["O=C1CSC(c2ccc(Cl)cc2)N1c1nc2ccc(OC(F)(F)F)cc2s1 (stereo not drawn) [h8]", "< 4.30"],
  ["O=C1CSC(c2ccc(F)cc2)N1c1nc2ccc(Cl)cc2s1 (stereo not drawn) [c1]", 5.32],
  ["O=C1CSC(c2c(F)cccc2F)N1c1nc2cccc(Cl)c2s1 (stereo not drawn) [a1]", "< 4.30"],
  ["O=C1CSC(c2ccc(F)cc2)N1c1nc2c(Cl)cccc2s1 (stereo not drawn) [d1]", "< 4.30"],
  ["O=C1CSC(c2ccc(F)cc2)N1c1nc2ccc(F)cc2s1 (stereo not drawn) [b1]", "< 4.30"],
  ["COc1cccc2sc(N3C(=O)CSC3c3ccc([N+](=O)[O-])cc3)nc12 (stereo not drawn) [e2]", "< 4.30"],
  ["O=C1CSC(c2ccc(Br)cc2)N1c1nc2ccc(C34CC5CC(CC(C5)C3)C4)cc2s1 (stereo not drawn) [m11]", "< 4.30"]
]}

Q: # get_value(readout='pIC50', item= O=C1CSC(c2ccc(O)cc2)N1c1nc2ccc(Cl)cc2s1 (stereo not drawn) [c5] )
A: < 4.30

Q: What pIC50 value was documented for this molecule, O=C1CSC(c2c(F)cccc2Cl)N1c1nc2ccc(C34CC5CC(CC(C5)C3)C4)cc2s1 (stereo not drawn) [m2] ?
A: < 4.30
